Origin of the recorded values: patent US20210301026A1

# study-target: T1, monomeric cynomolgus monkey CSF1R ectodomain protein (cynomolgus monkey, UniProt P07333 20-517 (human entry))
# T1 construct: also called monomeric cyno CSF1R; Cyno CSF1R
# T1 chain: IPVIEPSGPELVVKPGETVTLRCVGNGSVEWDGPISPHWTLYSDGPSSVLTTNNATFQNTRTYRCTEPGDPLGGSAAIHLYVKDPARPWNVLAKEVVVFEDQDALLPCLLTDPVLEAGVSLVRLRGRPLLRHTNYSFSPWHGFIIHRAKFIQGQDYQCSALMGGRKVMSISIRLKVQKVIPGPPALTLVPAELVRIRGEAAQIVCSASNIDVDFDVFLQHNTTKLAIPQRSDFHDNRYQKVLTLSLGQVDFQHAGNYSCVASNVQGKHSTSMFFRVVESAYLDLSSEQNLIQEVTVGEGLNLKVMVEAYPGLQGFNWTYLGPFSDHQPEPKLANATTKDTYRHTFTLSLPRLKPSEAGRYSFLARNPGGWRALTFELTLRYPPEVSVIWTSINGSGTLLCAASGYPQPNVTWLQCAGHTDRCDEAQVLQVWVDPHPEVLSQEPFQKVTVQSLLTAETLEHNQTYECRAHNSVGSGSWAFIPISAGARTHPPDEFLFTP
# assay-remarks: SPR Biacore, IgG captured, monomeric CSF1R analyte
Recorded Kd by entry
Quick note: give the figure in nM, leave out the unit.

{"binder": "29A03 (antibody, human IgG4, V domains shown, Library-derived clone, tested as human IgG4(S228P)/Ckappa IgG; framework residue limits counted on the grafts) VH: QVQLVQSGAEVKKPGSSVKVSCKASGYTFSSNYMIWVRQAPGQGLEWMGDINPYNGGATYNQKFQGRVTITADESTSTAYMELSSLRSEDTAVYYCAREPPYFSNLYVMDYWGQGTLVTVSS VL: EIVLTQSPATLSLSPGERATLSCRASQSVEYEGENYLNWYQQKPGQAPRLLIYAASNRATGIPARFSGSGSGTDFTLTISSLEPEDFAVYYCQLSNQDLLTFGGGTKVEIK", "Kd, nM": 1.2}
{"binder": "MH6 (antibody, V domains shown, Designer clone, human IgG4(S228P)/Ckappa IgG) VH: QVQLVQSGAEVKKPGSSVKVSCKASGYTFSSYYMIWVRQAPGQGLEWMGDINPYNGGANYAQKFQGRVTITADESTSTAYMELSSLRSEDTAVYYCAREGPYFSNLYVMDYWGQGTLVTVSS VL: EIVLTQSPATLSLSPGERATLSCRASQSVSYEGENYLAWYQQKPGQAPRLLIYAASNRATGIPARFSGSGSGTDFTLTISSLEPEDFAVYYCQLSNQDLLTFGGGTKVEIK", "Kd, nM": 1.3}

Q: GET /values?readout=Kd&item= 30D02 (antibody, human IgG4, V domains shown, Library-derived clone, tested as human IgG4(S228P)/Ckappa IgG; framework residue limits counted on the grafts) VH: QVQLVQSGAEVKKPGSSVKVSCKASGYTFSSYYMIWVRQAPGQGLEWMGDINPYNGGTTYAQKFQGRVTITADESTSTAYMELSSLRSEDTAVYYCAREGPYFSNLYVMDYWGQGTLVTVSS VL: EIVLTQSPATLSLSPGERATLSCRASQSVEYQGENYLNWYQQKPGQAPRLLIYAASNRATGIPARFSGSGSGTDFTLTISSLEPEDFAVYYCQLSNQDLLTFGGGTKVEIK
Ans: 1.7

Q: GET /values?readout=Kd&item= 29H09 (antibody, human IgG4, V domains shown, Library-derived clone, tested as human IgG4(S228P)/Ckappa IgG; framework residue limits counted on the grafts) VH: QVQLVQSGAEVKKPGSSVKVSCKASGYTFTSYYMIWVRQAPGQGLEWMGDINPYNGGANYAQKFQGRVTITADESTSTAYMELSSLRSEDTAVYYCAREGPYFSNLYVMDYWGQGTLVTVSS VL: EIVLTQSPATLSLSPGERATLSCRASQSVSYEGENYLNWYQQKPGQAPRLLIYAASNRATGIPARFSGSGSGTDFTLTISSLEPEDFAVYYCQLSNEDLLTFGGGTKVEIK
Ans: 0.42

Q: GET /values?readout=Kd&item= MH5 (antibody, human IgG4, V domains shown, Designer (maximally humanized) clone; tested as human IgG4(S228P)/Ckappa IgG; also called mAb-2) VH: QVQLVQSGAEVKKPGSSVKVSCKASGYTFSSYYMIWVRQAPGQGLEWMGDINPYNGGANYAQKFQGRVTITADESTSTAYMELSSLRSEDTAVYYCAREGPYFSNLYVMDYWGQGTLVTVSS VL: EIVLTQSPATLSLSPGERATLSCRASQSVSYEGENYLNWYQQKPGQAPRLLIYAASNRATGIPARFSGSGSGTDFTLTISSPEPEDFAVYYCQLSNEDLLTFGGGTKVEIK
Ans: 0.62

Q: GET /values?readout=Kd&item= murine anti-CSF1R antibody 0301 (mu0301), v-domains in human IgG4(S228P) format (antibody, V domains shown) VH: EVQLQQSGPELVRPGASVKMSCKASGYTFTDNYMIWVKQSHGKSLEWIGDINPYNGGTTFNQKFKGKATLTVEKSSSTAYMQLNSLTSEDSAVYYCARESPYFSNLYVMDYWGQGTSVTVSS VL: NIVLTQSPASLAVSLGQRATISCKASQSVDYDGDNYMNWYQQKPGQPPKLLIYAASNLESGIPARFSGSGSGTDFTLNIHPVEEEDAATYYCHLSNEDLSTFGGGTKLEIK
Ans: 0.1

Q: GET /values?readout=Kd&item= 30E06 (antibody, human IgG4, V domains shown, Library-derived clone; tested as human IgG4(S228P) / human Ckappa IgG; also called 30E6; mAb-3) VH: QVQLVQSGAEVKKPGSSVKVSCKASGYTFTSYYMIWVRQAPGQGLEWMGDINPYNGGTTYAQKFQGRVTITADESTSTAYMELSSLRSEDTAVYYCAREGPYFSNLYVMDYWGQGTLVTVSS VL: EIVLTQSPATLSLSPGERATLSCRASQSVSYEGENYLAWYQQKPGQAPRLLIYAASNLATGIPARFSGSGSGTDFTLTISSLEPEDFAVYYCQLSNEDLLTFGGGTKVEIK
Ans: 0.25

Q: GET /values?readout=Kd&item= 29D10 (antibody, human IgG4, V domains shown, Library-derived clone, tested as human IgG4(S228P)/Ckappa IgG; framework residue limits counted on the grafts) VH: QVQLVQSGAEVKKPGSSVKVSCKASGYTFTSYYMIWVRQAPGQGLEWMGDINPYNGGANFAQKFQGRVTITADESTSTAYMELSSLRSEDTAVYYCAREGPYFSNLYVMDYWGQGTLVTVSS VL: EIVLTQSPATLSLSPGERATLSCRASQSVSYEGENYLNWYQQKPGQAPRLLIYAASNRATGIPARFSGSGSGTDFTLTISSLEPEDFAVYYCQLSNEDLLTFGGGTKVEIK
Ans: 0.42

Q: GET /values?readout=Kd&item= 26B07 (antibody, human IgG4, V domains shown, Library-derived clone, tested as human IgG4(S228P)/Ckappa IgG; framework residue limits counted on the grafts) VH: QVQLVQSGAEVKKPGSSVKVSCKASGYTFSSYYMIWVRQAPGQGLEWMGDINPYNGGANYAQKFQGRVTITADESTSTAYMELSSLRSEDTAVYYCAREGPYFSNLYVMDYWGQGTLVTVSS VL: EIVLTQSPATLSLSPGERATLSCRASQSVEYQGDNYLNWYQQKPGQAPRLLIYAASNRATGIPARFSGSGSGTDFTLTISSLEPEDFAVYYCQLSNEDLLTFGGGTKVEIK
Ans: 0.85

Q: GET /values?readout=Kd&item= 29B07 (antibody, human IgG4, V domains shown, Library-derived clone, tested as human IgG4(S228P)/Ckappa IgG; framework residue limits counted on the grafts) VH: QVQLVQSGAEVKKPGSSVKVSCKASGYTFTSYYIIWVRQAPGQGLEWMGDINPYNGGATYAQKFQGRVTITADESTSTAYMELSSLRSEDTAVYYCAREPPYFSNLYVMDYWGQGTLVTVSS VL: EIVLTQSPATLSLSPGERATLSCRASQSVEYEGDNYLNWYQQKPGQAPRLLIYAASNRATGIPARFSGSGSGTDFTLTISSLEPEDFAVYYCQLSNQDLLTFGGGTKVEIK
Ans: 0.79

Q: GET /values?readout=Kd&item= humanized anti-CSF1R antibody 0301 (hu0301) (antibody, human IgG4, V domains shown, also called mAb-1) VH: QVQLVQSGAEVKKPGSSVKVSCKASGYTFTDNYMIWVRQAPGQGLEWMGDINPYNGGTTFNQKFKGRVTITADKSTSTAYMELSSLRSEDTAVYYCARESPYFSNLYVMDYWGQGTLVTVSS VL: EIVLTQSPATLSLSPGERATLSCKASQSVDYDGDNYMNWYQQKPGQAPRLLIYAASNLESGIPARFSGSGSGTDFTLTISSLEPEDFAVYYCHLSNEDLSTFGGGTKVEIK
Ans: 0.66
